assay: Kinetic aqueous solubility of compound at pH 7.4; type: physicochemical; settings: buffer, read-out: Kinetic_solubility
Property name: log10 of solubility kinetic (log10 of the value in µM)
Values reflect log10 of reported solubility kinetic (µM).

Worked set:
CCn1nc(C)c2c1NC(=O)[C@@H](NC(=O)c1cccc(C)c1)[C@H]2c1ccc(F)cc1 (racemic)    1.97
CCN1C(=O)[C@@H](NC(=O)c2cccc(C)c2)[C@@H](c2ccc(F)cc2)c2c(C)nn(C3CC3)c21 (racemic)    1.66
Cc1ccc([C@H]2c3c(C)nn(-c4ccccc4)c3NC(=O)[C@H]2NC(=O)c2cccc(C)c2)cc1 (relative stereo)    0.04
CCCn1nc(C)c2c1N(CC)C(=O)[C@@H](NC(=O)c1cccc(C)c1)[C@H]2c1ccc(F)cc1 (racemic)    1.04
Cc1cccc(C(=O)N[C@@H]2C(=O)Nc3c(c(C)nn3-c3ccccc3)[C@@H]2c2ccc(F)cc2)c1 (racemic)    0.74

Shifting focus to the molecule that follows.
Exercise: Looking for the measured log10 of solubility kinetic of Cc1cccc(C(=O)N[C@@H]2C(=O)Nc3c(c(C)nn3C3CCCC3)[C@@H]2c2ccc(F)cc2)c1 (racemic) , can you help?
Solution: 1.23
